Hi there, I'd appreciate the recorded growth for every entry that follows.
# System: SN12C renal
# methodSummary: NCI-60 one-dose screen, 48 h (100 = growth as untreated, 0 = no growth, -100 = all killed)
# conditionDescription: 10 µM
Compounds without any hit were thinned out: in the full panel of roughly 83,000, 20% have a hit.
Give bare numbers, in %.

molecule: O=C(CC(=O)Nc1ccc(Oc2ncnc3scc(Nc4n[nH]c(=S)s4)c23)cc1)Nc1ccc(Br)cc1
scaleUnit: %
growth: 106
--
molecule: COc1ccc(Cc2nn(CC(=O)N/N=C/c3ccc(Br)cc3)c(=O)c3c(C)noc23)cc1
scaleUnit: %
growth: 12.4
--
molecule: C#CCOc1cc(N(CC)CC)ccc1C(C(=O)NC(C)(C)C)N(C(=O)C1CCc2cc(F)ccc2O1)c1ccc(F)cc1F (configuration not stated)
scaleUnit: %
growth: 47.1
--
molecule: Cn1cc(-c2nnc(N)nc2-c2c[nH]c3ccccc23)c2cc(Br)cnc21
scaleUnit: %
growth: 56.1
--
molecule: O=[N+]([O-])c1cccc(-c2nnc3c(/C=C/c4ccccc4O)nc4ccccc4n23)c1
scaleUnit: %
growth: 63.4
--
molecule: Cc1cc(N=C2NC(=O)S/C2=C\c2ccc(F)cc2)n[nH]1
scaleUnit: %
growth: 22.8

Note: attention shifts to another entry.
Please report growth for the following molecule: `Cc1ccc(COc2ccc(NC(=O)Nc3ccc(Cl)c(C(F)(F)F)c3)cc2)cc1`
81.1

---

# System: MDA-MB-468 breast
# methodSummary: NCI-60 one-dose screen, 48 h (100 = growth as untreated, 0 = no growth, -100 = all killed)
# conditionDescription: 10 µM unless noted
# Protocol: Growth inhibition of the MDA-MB-468 human Breast tumor cell line is measured as a screen for anti-cancer activity. Cells are grown in 96 well plates and exposed to the test compound for 48 hours. Compounds are tested at a single concentration, which is 10^-5 M for most compounds. The reported endpoint is percent growth (GI% or GIPRCNT), where numbers from 0 - 100% represent growth inhibition, and numbers from -100% - 0 represent cell death. […]
The panel holds about 83,000 compounds, 20% with a hit somewhere; the sample as a whole holds those more often. The source made the active and inactive calls. The calls were made as follows: active = growth percent below 10; inactive = the rest.
What growth was measured for each of the following?

molecule: O=C1/C(=C\c2c[nH]c3ccccc23)c2ccccc2N1c1c(Cl)cccc1Cl
growth: 8.39% (active)
--
molecule: Cc1nc(-c2ccccc2)sc1CC#N
growth: 104% (inactive)

Dear colleague, could you send me growth for each of the items below? Thanks.
1. O=C(CCCCNC(=O)c1cc(=O)c(O)co1)Nc1ccccc1
2. O=C(NCCCO)c1cc(Cl)ccc1O
3. c1ccc2sc(SSN3CC4CCC(CC4)C3)nc2c1
4. CC(=O)O[C@]1(C)CC[C@H]2[C@H](CNCCc3ccc(Cl)cc3)C(=O)O[C@@H]2C2=C(C)C(=O)C[C@H]21

["35% (inactive)", "-12.2% (active)", "122% (inactive)", "47.3% (inactive)"]

Return reported growth values for all items listed beneath this line.
1. COc1ccc(C2C=C(c3ccc(Cl)cc3)N=C3SC=CN32)c(Br)c1 (stereo unspecified)
2. COc1cc2nc(-c3ccc(C(F)(F)F)cc3)cc(OCCN3CCC(O)CC3)c2cc1OC
3. O=C(Cc1ccc(/C=C/C(=O)c2ncc[nH]2)cc1)Nc1ccc(Br)cc1
4. Clc1ccc(-c2nc3ccccc3s2)cc1Cl
5. Cc1cccc(C)c1N1C(c2ccccc2)=NNC12C=CC(=O)c1c(O)cccc12 (stereo unspecified)

1: 61% (inactive); 2: 81.1% (inactive); 3: 19.6% (inactive); 4: 110% (inactive); 5: 85.1% (inactive)
